target: Human Platelet PLA2 (Homo sapiens); construct: semi-purified human platelet acid extract PLA2; from tissue; host or cells: human platelets (semi-purified acid extract); test: Inhibition of PLA2 derived from human platelets (HP), arachidonic acid release from 3H-AA E. coli substrate; type: biochemical; details: Drug Concentration 10 μM; Example 8: average of two runs
Exercise: state measured inhibition at 10 µM for each of the compounds provided.
The figure you give is taken to be in %; do not add the unit.

For the compound CC/C=C\C/C=C\C/C=C\CCCCCCCC(=O)Nc1nc(CC(=O)O)cs1 , report inhibition at 10 µM. 0.5

Read the entry CCCCC/C=C/C/C=C/CCCCCCCC(=O)Nc1nc(CC(=O)O)cs1 and write its reported inhibition at 10 µM. 74.6

# return recorded inhibition at 10 µM for entry CCCCCCCC/C=C\CCCCCCCC(=O)Nc1nc(CC(=O)O)cs1 36

Provide inhibition at 10 µM value for the following compound: CCCC/C=C\CCCCCCCC(=O)Nc1nc(CC(=O)O)cs1 65.6

----------
molecular target: Human Synovial PLA2 (Homo sapiens); construct: Purified human synovial fluid; from tissue; host or cells: human synovial fluid (purified); experiment: Inhibition of PLA2 derived from human synovial fluid (HSF), arachidonic acid release from 3H-AA E. coli substrate; type: biochemical; settings: test compounds, value in parentheses, Table 1; read-out: (IC50) HSF
ASSAY_METRIC: IC50 (nM)
Report the figure in nM without appending any unit label.

Quote IC50 reported for CCCCCCCC/C=C/CCCCCCCC(=O)Nc1nc(CC(=O)O)cs1 [Example 3] please. 2100

Kindly indicate its recorded IC50. Item: CCCCCCCC/C=C\CCCCCCCC(=O)Nc1nc(CC(=O)O)cs1 [Example 1] 1700

----------
I'd be grateful if you could share measured pIC50 for these entries.
Target: Human Platelet PLA2 (Homo sapiens, UniProt P14555)
Construct: semi-purified human platelet acid extract PLA2; from tissue; host or cells: human platelets (semi-purified acid extract)
Sequence (P14555 21-144): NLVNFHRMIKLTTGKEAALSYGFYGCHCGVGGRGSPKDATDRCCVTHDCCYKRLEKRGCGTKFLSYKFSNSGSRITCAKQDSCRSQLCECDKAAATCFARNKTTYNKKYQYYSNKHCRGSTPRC
Experiment: Inhibition of PLA2 derived from human platelets (HP), arachidonic acid release from 3H-AA E. coli substrate
Format: biochemical
Conditions: test compounds, value in parentheses, Table 1; read-out: (IC50) HP
Scale: pIC50 equals -log10([C]), with [C] in mol/L.

Consider the compound CCCCCCCC/C=C\CCCCCCCC(=O)Nc1nc(CC(=O)O)cs1 [Example 1] tested on Human Platelet PLA2 (Homo sapiens, UniProt P14555); state its pIC50. 4.55

Report value only: pIC50, Human Platelet PLA2 (Homo sapiens, UniProt P14555), CCCCCCCC/C=C/CCCCCCCC(=O)Nc1nc(CC(=O)O)cs1 [Example 3] 4.59

Origin of measurements: patent US5688821A
